Test system: P. falciparum stage V gametocytes
Design: BacTiter-Glo ATP luminescence viability of purified stage V gametocytes in 384-well plates, per cent inhibition versus DMSO
Settings: 48 h, 5 µM; inhibitor
Screen size: about 13,000 compounds; about 3,200 (25%) showed an effect of 50% or more. The list shows a part of the results.
For each record, write down the corresponding % Inhibition.
Field: numeric (%). Do not append units.

GET /value?item= COc1cc(C(=O)N2COCC(CCCN3CCC(N4CCCC4)CC3)(c3ccc(Cl)c(Cl)c3)C2)cc(OC)c1OC (stereo not shown) &field=% Inhibition returns 14.16

Query `Clc1ccc(-c2nc3ccc(-c4ccc5nc(-c6ccc(Cl)cc6)[nH]c5c4)cc3[nH]2)cc1` yields % Inhibition of 1.652

Lab note: measured % Inhibition of `FC(F)(F)c1ccc(-c2cncc(-c3ccc(C(F)(F)F)cc3)n2)cc1` was -27.18

// % Inhibition lookup, molecule = `Cc1cccc2nc(-c3ccc(-c4ccc(C(=O)NCCN5CCCC5)cc4)s3)[nH]c12` , result: 46.47

The values you see were collected from paper PMC4552634.
